# subject.of.test: Epidermal growth factor receptor (Homo sapiens, UniProt P00533, T790M)
# Sequence (P00533 25-1210 T790M limits assumed): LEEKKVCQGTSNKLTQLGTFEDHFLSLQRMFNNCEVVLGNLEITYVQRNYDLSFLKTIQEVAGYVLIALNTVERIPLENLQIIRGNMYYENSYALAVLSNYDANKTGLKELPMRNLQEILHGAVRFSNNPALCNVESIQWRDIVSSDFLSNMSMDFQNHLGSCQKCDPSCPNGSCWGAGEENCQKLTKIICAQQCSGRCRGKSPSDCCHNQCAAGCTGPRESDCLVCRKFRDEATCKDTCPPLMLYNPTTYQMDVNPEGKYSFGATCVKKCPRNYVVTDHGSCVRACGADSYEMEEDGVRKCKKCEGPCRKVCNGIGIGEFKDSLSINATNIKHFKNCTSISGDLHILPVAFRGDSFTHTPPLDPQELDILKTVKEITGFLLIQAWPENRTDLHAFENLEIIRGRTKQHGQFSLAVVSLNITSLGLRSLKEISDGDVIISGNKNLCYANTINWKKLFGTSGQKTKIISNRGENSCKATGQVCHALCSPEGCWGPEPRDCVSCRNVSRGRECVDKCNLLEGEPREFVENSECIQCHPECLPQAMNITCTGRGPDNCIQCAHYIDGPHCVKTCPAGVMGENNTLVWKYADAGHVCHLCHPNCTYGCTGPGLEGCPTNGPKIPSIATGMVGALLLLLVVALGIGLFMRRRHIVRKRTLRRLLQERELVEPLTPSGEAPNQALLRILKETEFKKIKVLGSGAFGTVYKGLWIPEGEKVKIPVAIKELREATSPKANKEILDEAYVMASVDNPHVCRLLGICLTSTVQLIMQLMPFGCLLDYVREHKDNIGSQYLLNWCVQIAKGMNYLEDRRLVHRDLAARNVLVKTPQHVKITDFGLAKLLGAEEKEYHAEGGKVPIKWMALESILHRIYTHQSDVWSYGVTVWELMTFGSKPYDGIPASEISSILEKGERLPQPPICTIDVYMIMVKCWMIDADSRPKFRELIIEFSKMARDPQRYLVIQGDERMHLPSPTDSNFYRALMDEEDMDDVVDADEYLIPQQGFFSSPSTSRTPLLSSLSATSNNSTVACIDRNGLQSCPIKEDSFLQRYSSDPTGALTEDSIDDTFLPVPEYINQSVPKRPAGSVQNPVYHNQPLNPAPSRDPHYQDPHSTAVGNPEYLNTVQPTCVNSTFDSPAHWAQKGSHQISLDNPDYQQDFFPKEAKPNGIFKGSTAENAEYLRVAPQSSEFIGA
# measurement.protocol: Inhibition of wild type EGFR T790M mutant (unknown origin) using FAM-labeled peptide substrate after 10 mins by mobility shift assay
measure: IC50 (nM)

a = CCC/C=C/C(=O)Nc1cc2c(N3CCCc4ccccc43)ncnc2cc1OC
b = COc1cc2ncnc(N3CCc4ccccc43)c2cc1NC(=O)/C=C/CN1CCCC1
c = COc1cc2ncnc(N3CCc4ccccc43)c2cc1NC(=O)/C=C/CN1CCC(CO)CC1
### Prompt Which order do these items fall in when sorted by IC50 from largest to smallest? Put the labels in the order asked and list them.
### Response a, b, c

1 = CC/C=C/C(=O)Nc1cc2c(N3CCc4ccccc43)ncnc2cc1OC
2 = COc1cc2ncnc(N3CCc4ccccc43)c2cc1NC(=O)/C=C/CN1CCCCC1
### Prompt Which item exceeds the other in IC50, 1 or 2 ? Mark your answer with the label of the selected entry.
### Response 1
